- Test Summary: Half life in Beagle dog at 3 mg/kg, iv
- Assay type: ADME, organism-based, Canis lupus familiaris
- Parameters: dose 3 mg/kg, route intravenous
- Test Conditions: in vivo
Assay Metric: half-life

• C[C@H]1Cc2ccccc2N1C(=O)Cc1nc(N2CCOCC2)cc(=O)[nH]1 = > 5 h

---

- Test Summary: Volume of distribution at steady state in nude rat at 3 mg/kg, iv
- Assay type: ADME, organism-based
- Design: dose 3 mg/kg, route intravenous
- Test Conditions: in vivo, read-out: Vdss
Assay Metric: Vd (L/kg)

* C[C@H]1Cc2ccccc2N1C(=O)Cc1nc(N2CCOCC2)cc(=O)[nH]1 | 8.1

---

- Test Summary: Apparent permeability in human Caco2 cells at 5 uM after 20 mins
- Test Conditions: Caco-2
Could you label it class 1 if measured Papp at 20 min, 5 µM is 4 ×10⁻⁶ cm/s or higher, and class 0 otherwise?

- C[C@@H]1Cc2ccccc2N1C(=O)Cc1nc(N2CCOCC2)cc(=O)[nH]1: class 1
- COc1cccc2c1CCN2C(=O)Cc1nc(N2CCOCC2)cc(=O)[nH]1: class 0
- Cn1c(CC(=O)N2CCc3ccccc32)nc(N2CCOCC2)cc1=O: class 1
- O=C(Cc1nc(N2CCOCC2)cc(=O)[nH]1)N1CCc2c(Br)cccc21: class 1
- O=C(Cc1nc(N2CCOCC2)cc(=O)[nH]1)N1CCc2c1cccc2C(F)(F)F: class 1
- O=C(Cc1nc(N2CCOCC2)cc(=O)[nH]1)N1CCc2c(-c3ccncc3)cccc21: class 0
- O=C(Cc1nc(N2CCOCC2)cc(=O)[nH]1)N1CCc2c(Cl)cccc21: class 1
- O=C(Cc1nc(N2CCOCC2)cc(=O)[nH]1)N1CCc2cc(F)ccc21: class 0
- Cc1cccc2c1CCN2C(=O)Cc1nc(N2CCOCC2)cc(=O)[nH]1: class 1
- O=C(Cc1nc(N2CCOCC2)cc(=O)[nH]1)N1CCc2cc(Cl)ccc21: class 0
- O=C(Cc1nc(N2CCOCC2)cc(=O)[nH]1)N1CCc2c(-c3cccnc3)cccc21: class 0

---

- Test Summary: Clearance in Beagle dog at 3 mg/kg, iv
- Format: ADME, organism-based, Canis lupus familiaris
- Design: dose 3 mg/kg, route intravenous
- Test Conditions: in vivo
Assay Metric: clearance (mL/min/kg)

* C[C@H]1Cc2ccccc2N1C(=O)Cc1nc(N2CCOCC2)cc(=O)[nH]1 | 6.67

---

- Test Summary: Tmax in Beagle dog at 10 mg/kg, po
- Type: ADME, organism-based, Canis lupus familiaris
- Parameters: dose 10 mg/kg, route oral
- Test Conditions: in vivo
Assay Metric: Tmax (min)

• C[C@H]1Cc2ccccc2N1C(=O)Cc1nc(N2CCOCC2)cc(=O)[nH]1 = 30

---

- Test Summary: Dissociation constant, pKa of the compound
- Format: physicochemical
Assay Metric: pKa

* O=C(Cc1nc(N2CCOCC2)cc(=O)[nH]1)N1CCc2c(-c3ccncc3)cccc21 | 4.5
* O=C(Cc1nc(N2CCOCC2)cc(=O)[nH]1)N1CCc2c(-c3cccnc3)cccc21 | 4.5

---

- Test Summary: Metabolic stability in human liver microsomes at 5 uM after 20 mins
- Test Conditions: liver microsomes
Assay Metric: remaining at 20 min, 5 µM (%)

- CC1(C)CN(C(=O)Cc2nc(N3CCOCC3)cc(=O)[nH]2)c2ccccc21: 83
- Cn1c(CC(=O)N2CCc3ccccc32)nc(N2CCOCC2)cc1=O: 14
- C[C@@H]1Cc2ccccc2N1C(=O)Cc1nc(N2CCOCC2)cc(=O)[nH]1: 43

---

- Measured Target: Phosphatidylinositol 4,5-bisphosphate 3-kinase catalytic subunit beta isoform (Homo sapiens)
- Sequence (P42338 whole entry, canonical isoform): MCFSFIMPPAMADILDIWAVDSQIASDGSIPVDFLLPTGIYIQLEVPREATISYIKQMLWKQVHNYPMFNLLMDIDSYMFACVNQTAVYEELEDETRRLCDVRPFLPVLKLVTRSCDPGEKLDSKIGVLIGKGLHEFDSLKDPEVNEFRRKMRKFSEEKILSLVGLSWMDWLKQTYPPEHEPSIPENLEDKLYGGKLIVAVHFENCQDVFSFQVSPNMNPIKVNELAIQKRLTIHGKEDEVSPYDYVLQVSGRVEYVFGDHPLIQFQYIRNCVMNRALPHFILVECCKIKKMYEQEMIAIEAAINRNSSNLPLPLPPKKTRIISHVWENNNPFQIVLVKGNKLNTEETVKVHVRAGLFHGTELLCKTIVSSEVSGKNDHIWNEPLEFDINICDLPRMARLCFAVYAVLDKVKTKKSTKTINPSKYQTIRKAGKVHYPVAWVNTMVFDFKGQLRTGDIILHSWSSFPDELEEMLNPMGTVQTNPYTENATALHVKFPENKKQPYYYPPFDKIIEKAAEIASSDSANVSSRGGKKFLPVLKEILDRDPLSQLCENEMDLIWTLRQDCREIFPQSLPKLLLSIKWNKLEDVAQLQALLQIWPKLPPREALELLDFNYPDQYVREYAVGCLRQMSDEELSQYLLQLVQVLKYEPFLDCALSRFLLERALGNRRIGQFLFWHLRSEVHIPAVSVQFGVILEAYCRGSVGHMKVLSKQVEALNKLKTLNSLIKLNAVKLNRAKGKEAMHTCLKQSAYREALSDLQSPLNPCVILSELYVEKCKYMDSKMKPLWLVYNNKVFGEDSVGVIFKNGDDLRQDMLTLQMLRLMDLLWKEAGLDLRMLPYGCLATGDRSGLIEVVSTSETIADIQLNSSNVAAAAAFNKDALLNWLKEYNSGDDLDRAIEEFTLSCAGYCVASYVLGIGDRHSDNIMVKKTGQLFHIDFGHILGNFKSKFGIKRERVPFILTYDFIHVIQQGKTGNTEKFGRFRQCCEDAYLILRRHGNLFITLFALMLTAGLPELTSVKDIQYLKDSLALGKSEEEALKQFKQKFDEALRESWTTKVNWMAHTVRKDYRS
- Test Summary: Inhibition of PI3Kbeta-mediated Akt phosphorylation at S473 in PTEN-deficient human PC3 cells after 0.5 to 2 hrs by Immunoblotting assay
- Assay type: cell-based, PC-3
pIC50: −log10 of the molar value.
Recorded pIC50 values for a group of molecules are listed next.
Assay Metric: pIC50

• C[C@H]1Cc2ccccc2N1C(=O)Cc1nc(N2CCOCC2)cc(=O)[nH]1 [SAR-260301] = 7.31
• CN1CCN(Cc2cccc3c2CCN3C(=O)Cc2nc(N3CCOCC3)cc(=O)[nH]2)CC1 = 6.57
• CC1CN(C(=O)Cc2nc(N3CCOCC3)cc(=O)[nH]2)c2ccccc21 (racemic) = 7.89
• O=C(Cc1nc(N2CCOCC2)cc(=O)[nH]1)N1CCc2c1cccc2C(F)(F)F = 8.05
• O=C(Cc1nc(N2CCOCC2)cc(=O)[nH]1)N1CCc2c(-c3ccccc3)cccc21 = 7.62
• O=C(Cc1nc(N2CCOCC2)cc(=O)[nH]1)N1CCc2cc(F)ccc21 = 8.15
• O=C(Cc1nc(N2CCOCC2)cc(=O)[nH]1)N1CCc2c(Br)cccc21 = 9.00
• O=C(Cc1nc(N2CCOCC2)cc(=O)[nH]1)N1CCc2c(-c3ccncc3)cccc21 = 7.03
• COc1cccc2c1CCN2C(=O)Cc1nc(N2CCOCC2)cc(=O)[nH]1 = 7.22

---

- Test Summary: AUC (infinity) in Balb/c mouse plasma at 3 mg/kg, iv by LC-MS/MS analysis
- Format: ADME, organism-based
- Set-up: time infinity, dose 3 mg/kg, route intravenous
Assay Metric: AUC(0-inf) (ng·h/mL)

* C[C@H]1Cc2ccccc2N1C(=O)Cc1nc(N2CCOCC2)cc(=O)[nH]1 | 600

---

- Test Summary: Apparent terminal half life in Balb/c mouse plasma at 3 mg/kg, iv by LC-MS/MS analysis
- Assay type: ADME, organism-based
- Set-up: dose 3 mg/kg, route intravenous
- Test Conditions: read-out: betat1/2(app) (converted)
Assay Metric: half-life (min)

- C[C@H]1Cc2ccccc2N1C(=O)Cc1nc(N2CCOCC2)cc(=O)[nH]1: 52.2

---

- Test Summary: Tmax in Balb/c mouse plasma at 10 mg/kg, po by LC-MS/MS analysis
- Type: ADME, organism-based
- Parameters: dose 10 mg/kg, route oral
Assay Metric: Tmax (min)

- C[C@H]1Cc2ccccc2N1C(=O)Cc1nc(N2CCOCC2)cc(=O)[nH]1: 15

---

Reported remaining at 20 min, 5 µM values are given for each entry in this list.
- Test Summary: Metabolic stability in mouse liver microsomes at 5 uM after 20 mins
- Test Conditions: liver microsomes
Assay Metric: remaining at 20 min, 5 µM (%)

* O=C(Cc1nc(N2CCOCC2)cc(=O)[nH]1)N1CCc2c(-c3ccccn3)cccc21 | 40
* CC1CN(C(=O)Cc2nc(N3CCOCC3)cc(=O)[nH]2)c2ccccc21 (racemic) | 40
* O=C(Cc1nc(N2CCOCC2)cc(=O)[nH]1)N1CCc2c(-c3ccccc3)cccc21 | 25
* O=C(Cc1nc(N2CCOCC2)cc(=O)[nH]1)N1CCc2cc(F)ccc21 | 14
* COc1cccc2c1CCN2C(=O)Cc1nc(N2CCOCC2)cc(=O)[nH]1 | 70

---

- Measured Target: Phosphatidylinositol 4,5-bisphosphate 3-kinase catalytic subunit gamma isoform (Homo sapiens, UniProt P48736)
- Sequence (P48736 whole entry, canonical isoform): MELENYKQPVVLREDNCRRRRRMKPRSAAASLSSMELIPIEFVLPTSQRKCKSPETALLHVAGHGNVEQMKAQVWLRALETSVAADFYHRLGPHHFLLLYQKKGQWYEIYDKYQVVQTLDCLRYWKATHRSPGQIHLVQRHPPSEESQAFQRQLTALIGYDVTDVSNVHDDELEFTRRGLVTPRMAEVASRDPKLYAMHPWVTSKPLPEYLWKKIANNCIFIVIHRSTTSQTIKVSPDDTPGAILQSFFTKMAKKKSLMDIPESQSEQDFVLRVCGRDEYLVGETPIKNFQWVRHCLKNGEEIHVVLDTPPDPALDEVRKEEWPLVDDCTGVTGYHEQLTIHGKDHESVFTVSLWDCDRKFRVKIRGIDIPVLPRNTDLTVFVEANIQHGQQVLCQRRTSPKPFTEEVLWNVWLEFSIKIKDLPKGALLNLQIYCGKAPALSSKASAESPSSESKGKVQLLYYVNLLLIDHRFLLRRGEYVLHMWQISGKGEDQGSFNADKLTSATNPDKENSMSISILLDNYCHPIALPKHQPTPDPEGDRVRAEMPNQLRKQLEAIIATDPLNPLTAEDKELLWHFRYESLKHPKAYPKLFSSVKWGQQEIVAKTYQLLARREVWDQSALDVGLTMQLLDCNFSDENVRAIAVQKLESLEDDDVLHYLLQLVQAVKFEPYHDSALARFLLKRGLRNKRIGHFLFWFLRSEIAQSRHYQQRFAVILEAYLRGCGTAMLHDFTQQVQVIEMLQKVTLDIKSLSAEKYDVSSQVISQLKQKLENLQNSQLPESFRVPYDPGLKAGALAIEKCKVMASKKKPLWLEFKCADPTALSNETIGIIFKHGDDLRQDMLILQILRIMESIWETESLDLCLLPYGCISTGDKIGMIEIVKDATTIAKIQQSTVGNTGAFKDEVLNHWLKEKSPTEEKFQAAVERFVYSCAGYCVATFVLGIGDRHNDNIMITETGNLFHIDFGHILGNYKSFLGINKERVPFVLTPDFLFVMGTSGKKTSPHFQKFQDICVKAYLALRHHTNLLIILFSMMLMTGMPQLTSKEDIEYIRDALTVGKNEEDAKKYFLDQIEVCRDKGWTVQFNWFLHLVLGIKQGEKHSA
- Test Summary: Inhibition of C-terminal ploy-His-tagged human PI3Kgamma expressed in baculovirus-infected sf9 cells using PI(4,5)P2 as substrate after 15 mins by HTRF assay
pIC50: −log10 of the molar value.
Assay Metric: pIC50

• CC1Cc2ccccc2N1C(=O)Cc1nc(N2CCOCC2)cc(=O)[nH]1 (racemic) = 5.04
• O=C(Cc1nc(N2CCOCC2)cc(=O)[nH]1)N1CCc2cc(Cl)ccc21 = 5.00
• CN1CCN(c2cccc3c2CCN3C(=O)Cc2nc(N3CCOCC3)cc(=O)[nH]2)CC1 = 5.00
• O=C(Cc1nc(N2CCOCC2)cc(=O)[nH]1)N1CCc2cc(F)ccc21 = 5.80
• O=C(Cc1nc(N2CCOCC2)cc(=O)[nH]1)N1CCc2c(-c3cccnc3)cccc21 = 5.61
• O=C(Cc1nc(N2CCOCC2)cc(=O)[nH]1)N1CCc2c1cccc2C(F)(F)F = 5.08
• O=C(Cc1nc(N2CCOCC2)cc(=O)[nH]1)N1CCc2c(-c3ccccn3)cccc21 = 5.05
• O=C(Cc1nc(N2CCOCC2)cc(=O)[nH]1)N1CCc2c(Br)cccc21 = 5.40
• Cc1cccc2c1CCN2C(=O)Cc1nc(N2CCOCC2)cc(=O)[nH]1 = 5.75

Source listed as ChEMBL document CHEMBL3112424.
